Data origin: ChEMBL document CHEMBL3856225

Target: Glycogen synthase kinase-3 beta (Homo sapiens, UniProt P49841)
Sequence (P49841 whole entry): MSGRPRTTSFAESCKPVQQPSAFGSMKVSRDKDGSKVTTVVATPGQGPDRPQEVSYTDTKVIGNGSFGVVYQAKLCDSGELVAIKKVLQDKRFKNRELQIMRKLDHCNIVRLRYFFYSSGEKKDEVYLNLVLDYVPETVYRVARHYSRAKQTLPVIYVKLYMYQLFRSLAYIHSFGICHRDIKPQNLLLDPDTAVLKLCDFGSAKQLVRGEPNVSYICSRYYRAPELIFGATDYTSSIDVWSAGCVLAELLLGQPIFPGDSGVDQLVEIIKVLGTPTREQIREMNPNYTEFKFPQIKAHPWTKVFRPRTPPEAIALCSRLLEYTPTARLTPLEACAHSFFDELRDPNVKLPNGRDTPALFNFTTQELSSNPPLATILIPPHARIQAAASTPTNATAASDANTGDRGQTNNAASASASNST
Assay: Inhibition of His-tagged full length human recombinant GSK-3beta expressed in Baculovirus using Ser/Thr9 peptide as substrate by Z' LYTE assay
property-label: pIC50
Notebook: values listed as pIC50 are -log10 of the concentration (mol/L).

Prompt: Consider the compound shown here: `O=C1N/C(=N/Cc2ccccc2)S/C1=C\c1ccc(Cl)c([N+](=O)[O-])c1` What is its recorded pIC50?
Completion: 7.62

Prompt: Consider the compound shown here: `O=C1N=C(NCc2ccccc2)S/C1=C\c1ccc(O)cc1` What is its recorded pIC50?
Completion: 7.57

Prompt: Consider the compound shown here: `O=C1N/C(=N/c2ccccc2)S/C1=C\c1ccc(O)cc1` What is its recorded pIC50?
Completion: 7.56

* * *

Target: Glycogen synthase kinase-3 beta (Homo sapiens, UniProt P49841)
Assay: Inhibition of His-tagged full length human recombinant GSK-3beta expressed in Baculovirus using Ser/Thr9 peptide as substrate by Z' LYTE assay
property-label: pIC50
Notebook: values listed as pIC50 are -log10 of the concentration (mol/L).

Prompt: Consider the compound shown here: `O=C1N/C(=N/c2ccccc2)S/C1=C\c1ccc(F)cc1` What is its recorded pIC50?
Completion: 7.40

Prompt: Consider the compound shown here: `N=C1NC(=O)/C(=C/c2ccc(O)c(C(=O)O)c2)S1` What is its recorded pIC50?
Completion: 7.07

Prompt: Consider the compound shown here: `COc1ccc(/C=C2\S/C(=N\Cc3ccccc3)NC2=O)cc1[N+](=O)[O-]` What is its recorded pIC50?
Completion: 8.68

Prompt: Consider the compound shown here: `COc1ccc(/C=C2\SC(=N)NC2=O)cc1OC` What is its recorded pIC50?
Completion: 7.09

Prompt: Consider the compound shown here: `COc1ccc(/C=C2\S/C(=N\Cc3ccccc3)NC2=O)cc1OC` What is its recorded pIC50?
Completion: 7.35

Prompt: Consider the compound shown here: `CCOc1cc(/C=C2\S/C(=N\Cc3ccccc3)NC2=O)ccc1O` What is its recorded pIC50?
Completion: 7.29

* * *

Could you please report measured Activity for the items listed next?
Target: UniProtKB P24941
Experiment: Inhibition of GST-tagged human recombinant CDK2 assessed as residual activity at 2 uM using Ser/Thr12 peptide as substrate by Z' LYTE assay relative to control
# output: bare number, implied unit %

Prompt: Consider the compound shown here: `COc1ccc(/C=C2\S/C(=N\Cc3ccccc3)NC2=O)cc1OC` What is its recorded Activity?
Completion: 53.8

Prompt: Consider the compound shown here: `COc1ccc(/C=C2\S/C(=N\Cc3ccccc3)NC2=O)cc1[N+](=O)[O-]` What is its recorded Activity?
Completion: 73

Prompt: Consider the compound shown here: `O=C1N=C(NCc2ccccc2)S/C1=C\c1ccc(O)cc1` What is its recorded Activity?
Completion: 63.2

Prompt: Consider the compound shown here: `CCOc1cc(/C=C2\S/C(=N\Cc3ccccc3)NC2=O)ccc1O` What is its recorded Activity?
Completion: 39.1

Prompt: Consider the compound shown here: `O=C1N/C(=N/Cc2ccccc2)S/C1=C\c1ccc(Cl)c([N+](=O)[O-])c1` What is its recorded Activity?
Completion: 68.4

Prompt: Consider the compound shown here: `O=C1N/C(=N/c2ccccc2)S/C1=C\c1ccc(O)cc1` What is its recorded Activity?
Completion: 69.6

Prompt: Consider the compound shown here: `O=C1N/C(=N/c2ccccc2)S/C1=C\c1ccc(F)cc1` What is its recorded Activity?
Completion: 68.9
